Assay: Solubility measurement in cyclohexanone
Assay type: physicochemical
Settings: in cyclohexanone at a concentration of 1.3 wt % at 25° C.
quantityKind: Solubility (1.3 wt %)

Q. Quickly give me recorded Solubility (1.3 wt %) for "c1ccc2cc(-c3c4ccccc4c(-c4cccc5ccc(-c6ccc7cccc(-c8c9ccccc9c(-c9ccc(-c%10cccc%11ccccc%10%11)cc9)c9ccccc89)c7c6)cc45)c4ccccc34)ccc2c1"
A. ◯

Q. Quickly give me recorded Solubility (1.3 wt %) for "c1ccc2c(-c3c4ccccc4c(-c4ccc(-c5ccc6ccc(-c7ccc8ccc(-c9c%10ccccc%10c(-c%10ccc%11oc%12ccccc%12c%11c%10)c%10ccccc9%10)cc8c7)cc6c5)cc4)c4ccccc34)cccc2c1"
A. ◯

====

Experiment: Solubility measurement in cyclohexanone
Type: physicochemical
Details: in cyclohexanone at a concentration of 1.3 wt % at 25° C.
quantityKind: Solubility (1.3 wt %)

Example cases with answers are listed next.
Q. Quickly give me recorded Solubility (1.3 wt %) for "c1cc(-c2cccc3ccc(-c4ccc5cccc(-c6c7ccccc7c(-c7ccc8ccccc8c7)c7ccccc67)c5c4)cc23)cc(-c2c3ccccc3c(-c3cccc4ccccc34)c3ccccc23)c1"
A. ◯

Q. Quickly give me recorded Solubility (1.3 wt %) for "c1cc(-c2cccc3ccc(-c4ccc5cccc(-c6c7ccccc7c(-c7ccc8ccccc8c7)c7ccccc67)c5c4)cc23)cc(-c2c3ccccc3c(-c3ccc4ccccc4c3)c3ccccc23)c1"
A. ◯

Q. Quickly give me recorded Solubility (1.3 wt %) for "c1ccc(-c2c3ccccc3c(-c3ccc(-c4ccc5cc(-c6ccc7cc(-c8c9ccccc9c(-c9ccccc9)c9ccccc89)ccc7c6)ccc5c4)cc3)c3ccccc23)cc1"
A. X

Q. Quickly give me recorded Solubility (1.3 wt %) for c1ccc2c(-c3ccc(-c4c5ccccc5c(-c5ccc(-c6cccc7c(-c8cccc9ccc(-c%10ccc(-c%11c%12ccccc%12c(-c%12cccc%13ccccc%12%13)c%12ccccc%11%12)cc%10)cc89)cccc67)cc5)c5ccccc45)cc3)cccc2c1 [Compound B, reference compound]
A. Δ

Q. Quickly give me recorded Solubility (1.3 wt %) for "c1cc(-c2ccc(-c3c4ccccc4c(-c4cccc5ccccc45)c4ccccc34)cc2)c2cc(-c3ccc4cccc(-c5c6ccccc6c(-c6ccc7oc8ccccc8c7c6)c6ccccc56)c4c3)ccc2c1"
A. ◯

Q. Quickly give me recorded Solubility (1.3 wt %) for "c1ccc2cc(-c3c4ccccc4c(-c4ccc5ccc(-c6ccc7ccc(-c8c9ccccc9c(-c9ccc(-c%10cccc%11ccccc%10%11)cc9)c9ccccc89)cc7c6)cc5c4)c4ccccc34)ccc2c1"
A. ◯

Okay, now this compound:
Q. Quickly give me recorded Solubility (1.3 wt %) for "c1ccc2cc(-c3c4ccccc4c(-c4ccc(-c5cccc6ccc(-c7ccc8cccc(-c9c%10ccccc%10c(-c%10ccc%11ccccc%11c%10)c%10ccccc9%10)c8c7)cc56)cc4)c4ccccc34)ccc2c1"
A. ◯
